Listed next: entries and their corresponding IC50.
experimental_system: HckKD (Homo sapiens (Human), UniProt P08631)
Sequence (P08631 262-515): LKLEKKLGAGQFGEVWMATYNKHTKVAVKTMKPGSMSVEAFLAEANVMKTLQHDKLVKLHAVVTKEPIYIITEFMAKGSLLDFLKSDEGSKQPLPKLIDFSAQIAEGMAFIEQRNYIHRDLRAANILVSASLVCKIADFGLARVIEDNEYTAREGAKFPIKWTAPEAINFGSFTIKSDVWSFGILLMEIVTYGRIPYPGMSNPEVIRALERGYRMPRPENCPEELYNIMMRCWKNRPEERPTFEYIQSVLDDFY
measurement_description: Tyrosine kinase IC50, HckKD
Type: biochemical
reported_conditions: Table 9
Give a bare numeral; the unit µM is implied.

compound_structure_string	IC50 [µM]
CC(C)Oc1ccc2cc(-c3nn(C(C)C)c4ncnc(N)c34)ccc2c1	0.541

// moving on: another record for IC50
COc1ccc2cc(-c3nn(C(C)C)c4ncnc(N)c34)ccc2c1 yielded IC50 of 0.375

---

// IC50 lookup, one value per entry
experimental_system: HckKD (Homo sapiens (Human), UniProt P08631)
measurement_description: Tyrosine kinase IC50, HckKD
Type: biochemical
reported_conditions: Table 9

Notebook: CCOc1ccc2cc(-c3nn(CC4CCNCC4)c4ncnc(N)c34)ccc2c1 , IC50 read as > 10 µM

Notebook: CCCOc1ccc2cc(-c3nn(CC4CCNCC4)c4ncnc(N)c34)ccc2c1 , IC50 read as > 10 µM

Notebook: CCCCOc1ccc2cc(-c3nn(CC4CCNCC4)c4ncnc(N)c34)ccc2c1 , IC50 read as > 10 µM
